- System: SNU-61 (Colorectal Carcinoma)
- assayRemarks: combination Emax (second highest fraction inhibited in the dose matrix, 72 h); higher = more inhibition; extreme values may be limits of the assay
measuredEndpoint: combination Emax
Give bare numbers.

{"molecule": "C[C@@H](c1ccc2nccn2c1)n1nnc2ncc(-c3cnn(C)c3)nc21 [Savolitinib] + CN(CC[C@H](CSC1=CC=CC=C1)NC2=C(C=C(C=C2)S(=O)(=O)NC(=O)C3=CC=C(C=C3)N4CCC(CC4)[C@H](C5=CC=CC=C5C6=CC=C(C=C6)Cl)O)S(=O)(=O)C(F)(F)F)CCO [AZD4320] (first compound max 1 µM, 7x7, partner max 1 µM)", "measuredTarget": "SNU-61 (Colorectal Carcinoma)", "combination Emax": 0.183}

Switching to the query record.
For the molecule shown here, CC1(C)CCC(CN2CCN(c3ccc(C(=O)NS(=O)(=O)c4ccc(NCC5CCOCC5)c([N+](=O)[O-])c4)c(Oc4cnc5[nH]ccc5c4)c3)CC2)=C(c2ccc(Cl)cc2)C1 [Venetoclax] + Cc1cc2ncnn2cc1Nc1ncc2c(n1)n(C1CCOCC1)c(=O)n2C [AZD7648] (first compound max 1 µM, 7x7, partner max 10 µM) , give the reported combination Emax.
0.154

###

- Tested on: HCT-116 (Colorectal Carcinoma);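 note: after 72 h of two-drug dosing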
- assayRemarks: Bliss excess, mean over the matrix (fraction); higher = more synergy
measuredEndpoint: Bliss excess
Give bare numbers.

{"molecule": "O=C(c1cc(Cc2n[nH]c(=O)c3ccccc23)ccc1F)N1CCN(C(=O)C2CC2)CC1 [Olaparib] + COc1nnc2ccc(N3CCC(c4ccc(OCCN5CCN(C)C(=O)[C@H]5C)cc4)CC3)nn12 [AZD5153] (first compound max 10 µM, 7x7, partner max 1 µM)", "observedMeasurement": -0.0206}
{"molecule": "NC1(C(=O)N[C@@H](CCO)c2ccc(Cl)cc2)CCN(c2ncnc3[nH]ccc23)CC1 [Capivasertib] + CC(=O)c1c(C)c2cnc(Nc3ccc(N4CCNCC4)cn3)nc2n(C2CCCC2)c1=O [Palbociclib] (first compound max 10 µM, 7x7, partner max 10 µM)", "observedMeasurement": 0.01}
{"molecule": "COc1nnc2ccc(N3CCC(c4ccc(OCCN5CCN(C)C(=O)[C@H]5C)cc4)CC3)nn12 [AZD5153] + C[C@@H]1COCCN1C2=NC(=NC(=C2)C3(CC3)[S@](=N)(=O)C)C4=C5C=CNC5=NC=C4 [AZD6738] (first compound max 1 µM, 7x7, partner max 10 µM)", "observedMeasurement": -0.0049}
{"molecule": "CN(C)CCCOc1ccc(-c2ccc3ncc4c(c3c2)n(C2CCOCC2)c(=O)n4C)cn1 [AZD0156] + O=C(c1cc(Cc2n[nH]c(=O)c3ccccc23)ccc1F)N1CCN(C(=O)C2CC2)CC1 [Olaparib] (first compound max 3 µM, partner max 3 µM)", "observedMeasurement": 0.129}
{"molecule": "CC1(C)CCC(CN2CCN(c3ccc(C(=O)NS(=O)(=O)c4ccc(NCC5CCOCC5)c([N+](=O)[O-])c4)c(Oc4cnc5[nH]ccc5c4)c3)CC2)=C(c2ccc(Cl)cc2)C1 [Venetoclax] + Cn1cnc2c(F)c(Nc3ccc(Br)cc3Cl)c(C(=O)NOCCO)cc21 [Selumetinib] (first compound max 1 µM, 7x7, partner max 3 µM)", "observedMeasurement": -0.0255}

List the reported Bliss excess of each molecule below.
1. Cc1c2c(nn1C)CSCc1cc(n(C)n1)CSc1cc(c3ccccc3c1)OCCCc1c(C(=O)O)n(C)c3c-2c(Cl)ccc13 [AZD5991] + CC1(C)CCC(CN2CCN(c3ccc(C(=O)NS(=O)(=O)c4ccc(NCC5CCOCC5)c([N+](=O)[O-])c4)c(Oc4cnc5[nH]ccc5c4)c3)CC2)=C(c2ccc(Cl)cc2)C1 [Venetoclax] (first compound max 1 µM, 7x7, partner max 1 µM)
2. CCN(CCO)CCCOc1ccc2c(Nc3cc(CC(=O)Nc4cccc(F)c4)[nH]n3)ncnc2c1 [AZD2811] + C[C@@H]1COCCN1C2=NC(=NC(=C2)C3(CC3)[S@](=N)(=O)C)C4=C5C=CNC5=NC=C4 [AZD6738] (first compound max 1 µM, 7x7, partner max 10 µM)

[-0.0317, -0.0825]
